test system: Diplodia maydis (Dm); test: Growth inhibition assay of fungal pathogens; format: cell-based; details: Stenocarpella maydis, 48 h, Table 4b, read-out: Concentration at 90% Inhibition Dm
# maps each entry to its IC90
Parameter: IC90 (µg/mL)

1. COc1ccc(F)cc1[C@H](Cn1c(=O)n(C(C)(C)C(=O)N2CCCC2)c(=O)c2c(C)c(-n3cccn3)sc21)OC[C@@H](C)O; 10
2. COCCO[C@@H](Cn1c(=O)n(C(C)(C)C(=O)NC(C)C)c(=O)c2c(C)c(-n3cccn3)sc21)c1cc(F)ccc1OC; 10
3. COc1ccc(F)cc1[C@H](Cn1c(=O)n(C(C)(C)C(=O)NC(C)C)c(=O)c2c(C)c(-n3cccn3)sc21)OC1CCOCC1; 2
4. COc1ccc(F)cc1[C@H](Cn1c(=O)n(C(C)(C)C(=O)NC(C)C)c(=O)c2c(C)c(-n3cccn3)sc21)OC(C)C.I; 2
5. COc1ccc(F)cc1[C@H](Cn1c(=O)n(C(C)(C)C(=O)NC(C)C)c(=O)c2c(C)c(-n3cccn3)sc21)OC[C@H](C)O; 10
6. COc1ccc(F)cc1[C@H](Cn1c(=O)n(C(C)(C)C(=O)NC(C)C)c(=O)c2c(C)c(-n3cccn3)sc21)O[C@H]1CC[C@@H](O)CC1; 2
7. COc1ccc(F)cc1[C@H](Cn1c(=O)n(C(C)(C)C(=O)N2CCCC2)c(=O)c2c(C)c(-n3cccn3)sc21)OCCC#N; 2
8. COc1ccc(F)cc1[C@H](Cn1c(=O)n(C(C)(C)C(=O)N2CCCC2)c(=O)c2c(C)c(-n3cccn3)sc21)OC(C)C; 2
9. COc1ccccc1[C@H](Cn1c(=O)n(C(C)(C)C(=O)O)c(=O)c2c(C)c(-n3cccn3)sc21)OCCC#N; 0.4
10. COc1ccccc1[C@H](Cn1c(=O)n(C(C)(C)C(=O)N2CCCCC2)c(=O)c2c(C)c(-n3cccn3)sc21)OC1CCOCC1; 10
11. COc1ccc(F)cc1[C@H](Cn1c(=O)n(C(C)(C)C(=O)NC(C)C)c(=O)c2c(C)c(-n3cccn3)sc21)OC[C@@H](C)O; 2
12. COc1ccc(F)cc1[C@H](Cn1c(=O)n(C(C)(C)C(=O)N2CCCC2)c(=O)c2c(C)c(-n3cccn3)sc21)O[C@H]1CC[C@@H](O)CC1; 10
13. COc1ccccc1[C@H](Cn1c(=O)n(C(C)(C)C(=O)N2CCCC2)c(=O)c2c(C)c(-n3cccn3)sc21)OCC(C)C; 2
14. COc1ccc(F)cc1[C@H](Cn1c(=O)n(C(C)(C)C(=O)N2CCCC2)c(=O)c2c(C)c(-n3cccn3)sc21)OC1CCC(=O)CC1; 10
15. CCO[C@@H](Cn1c(=O)n(C(C)(C)C(=O)N2CCCC2)c(=O)c2c(C)c(-n3cccn3)sc21)c1cc(F)ccc1OC; 2
16. COc1ccc(F)cc1[C@H](Cn1c(=O)n(C(C)C(=O)NC(C)C)c(=O)c2c(C)c(-n3cccn3)sc21)OC(C)C (stereo partly shown); 2

====

tested on: C. parapsilosis ATCC 22019; assay: Anti-Fungal (Candida) Activity Assay, broth microtiter MIC; type: cell-based; details: Lodderomyces parapsilosis, ATCC22019; 3 replicates, MIC recorded at 48 h; read-out: MIC C. parapsilosis ATCC 22019
Parameter: MIC

1. COCCO[C@@H](Cn1c(=O)n(C(C)C(N)=O)c(=O)c2c(C)c(-n3cccn3)sc21)c1cc(F)ccc1OC (stereo partly shown); > 4.1 µg/mL
2. COc1ccccc1[C@H](Cn1c(=O)n(C(C)(C)C(=O)O)c(=O)c2c(C)c(-n3cccn3)sc21)OC1CCOCC1; > 4.1 µg/mL
3. COCCO[C@@H](Cn1c(=O)n([C@H](C)C(=O)N2CCCC2)c(=O)c2c(C)c(-n3cccn3)sc21)c1cc(F)ccc1OC; > 4.1 µg/mL
4. COCCOc1ccc(F)cc1[C@H](Cn1c(=O)n(C(C)(C)C(N)=O)c(=O)c2c(C)c(-n3cccn3)sc21)OC(C)C; > 4.1 µg/mL
5. COc1ccc(F)cc1[C@H](Cn1c(=O)n(C(C)(C)C(=O)N2CC=CC2)c(=O)c2c(C)c(-n3cccn3)sc21)OC1CCOCC1; 2.1 to 4 µg/mL
6. COc1ccc(F)cc1[C@H](Cn1c(=O)n(C(C)(C)C(=O)N2CCCC2)c(=O)c2c(C)c(-n3cccn3)sc21)OC1CCOCC1; 1.1 to 2 µg/mL
7. COc1ccc(F)cc1[C@H](Cn1c(=O)n(C(C)C(=O)N2CCCC2)c(=O)c2c(C)c(-n3cccn3)sc21)OCC(C)(C)O (stereo partly shown); > 4.1 µg/mL
8. COc1ccc(F)cc1[C@H](Cn1c(=O)n(C(C)(C)C(=O)O)c(=O)c2c(C)c(-n3cccn3)sc21)OCCC#N; > 4.1 µg/mL
9. Cc1c(-n2cccn2)sc2c1c(=O)n(C(C)(C)C(=O)N1CCCC1)c(=O)n2C[C@H](OC1CCOCC1)c1cc(F)ccc1OCC1COC1; 2.1 to 4 µg/mL
10. COCCO[C@@H](Cn1c(=O)n([C@@H](C)C(=O)NC(C)C)c(=O)c2c(C)c(-n3cccn3)sc21)c1cc(F)ccc1OC; 2.1 to 4 µg/mL
11. COCCO[C@@H](Cn1c(=O)n(C(C)C(=O)NC(C)C)c(=O)c2c(C)c(-n3cccn3)sc21)c1cc(F)ccc1OC (stereo partly shown); 2.1 to 4 µg/mL
12. COc1ccc(F)cc1[C@H](Cn1c(=O)n(C(C)(C)C(=O)N2CCCC2)c(=O)c2c(C)c(-n3cccn3)sc21)OC[C@H](C)O; 2.1 to 4 µg/mL
13. COc1ccc(F)cc1[C@H](Cn1c(=O)n(C(C)(C)C(=O)N2CCCC2)c(=O)c2c(C)c(-n3cccn3)sc21)O[C@H]1CC[C@@H](O)CC1; 0.25 to 1 µg/mL
